Test system: CAKI-1 renal
procedure.text: NCI-60 one-dose screen, 48 h (100 = growth as untreated, 0 = no growth, -100 = all killed)
study.conditions: 10 µM
About 83,000 compounds went through this panel and 20% of them were active in at least one assay; those are over-represented in the sample as a whole.
Reported growth is given for each of the following compounds.
Give your result in % as a bare value.

Illustrative cases are given below, each with its answer.
> print(dat)
                        structure.as.smiles  result.value
1  COc1cc2c3c(n(CCCNC(C)C)c(=O)c2cc1OC)-c1nc2c(cc1C3=O)OCO2          13.7
2  O=C(Nc1cccc([N+](=O)[O-])c1)Nc1cccc([N+](=O)[O-])c1          83.7
3  CC[C@@]1(O)C(=O)OCc2c1cc1n(c2=O)Cc2c-1nc1cc(F)c(C)c3c1c2[C@@H](N)CC3         -22.9
4  Cc1ccc(/C(N)=N/c2sc(-c3ccccc3)nc2-c2ccccc2)cc1          59.8
5  CCCn1c(=O)c2[nH]c(-c3ccc(OCc4nc5ccc(C#N)cc5[nH]4)cc3)nc2n(CCC)c1=O          89.6
6  CC(=O)c1cc(C(=O)c2ccc3c(c2)NC(=O)CO3)n2ccc3ccccc3c12          55.4
7  O=C(NO)c1ccc(CNc2nc(-c3ccccc3)c3ccccc3n2)cc1         -4.81
8  O=C(CSc1nnc(-c2c[nH]c3ccccc23)n1-c1ccccc1)Nc1ccc(C(=O)/C=C/c2cccc([N+](=O)[O-])c2)cc1          83.7

Here is another compound to look at.
The recorded growth for entry Cc1ccc(/C=C/C(=O)c2ccc(NC(=O)CSc3nnc(-c4c[nH]c5ccccc45)n3-c3ccccc3)cc2)cc1 equals 80.6

----------
Test system: MCF7 breast
procedure.text: NCI-60 one-dose screen, 48 h
study.conditions: 10 µM
Compounds without any hit were thinned out: in the full panel of roughly 83,000, 20% have a hit. Activity calls are given as the source filed them. How the source made its calls: active means growth percent below 10; inactive means the rest.
Assign a class; possible classes are active, inactive

Answered cases to consult:
> print(dat)
                                   compound  target.or.system  qualitative.label
1  O=C(N/N=C/c1ccc(-c2cccc([N+](=O)[O-])c2)o1)c1[nH]c2ccc(Br)cc2c1-c1ccccc1       MCF7 breast             active
2  CCOC(=O)CNC(=O)CN(Cc1ccccc1)C(=O)[C@@]1(C)CCC[C@]2(C)[C@H]3CC4C(C(C)C)=C[C@]3(CC[C@H]21)[C@@H]1C(=O)CCC(=O)[C@H]41       MCF7 breast           inactive
3    CC(C)Sc1nc(NC2CC2)c(C#N)c(-c2ccccc2)n1       MCF7 breast           inactive

API: the following record is the query input.
Hi, sorry to bother you, what did the test record for CN1C(=O)N(C)C2SC(N/N=C/c3ccccc3)=NC21 (centres undefined) ?
inactive

----------
Test system: U251 CNS
procedure.text: NCI-60 one-dose screen, 48 h (100 = growth as untreated, 0 = no growth, -100 = all killed)
study.conditions: 10 µM
About 83,000 compounds went through this panel and 20% of them were active in at least one assay; those are over-represented in the sample as a whole.
Reported growth is given for each of the following compounds.
Give your result in % as a bare value.

Illustrative cases are given below, each with its answer.
> print(dat)
                                   compound  units.text  result.value
1  Cc1cc(C)cc(Oc2cccc(-c3c(C)nnn3C3CCN(CCN(C)C)CC3)n2)c1           %          36.5
2        O=C(CNc1nc(-c2ccccc2)cs1)Nc1ccccc1           %         -85.2
3    COc1ccc2[nH]cc(/C=N/Nc3cccc(Cl)n3)c2c1           %          57.5
4  CC(C)C1=C[C@@]23CC[C@@H]4[C@](C)(CCC[C@]4(C)C(=O)NCc4ccccc4)[C@H]2C[C@@H]1[C@H]1C(=O)CCC(=O)[C@H]13           %            67
5  COc1ccc2[nH]c(O)c(N=NC(=O)COc3ccc(NC(=O)Nc4ccc(Cl)cc4)cc3)c2c1           %         -87.2

Here is another compound to look at.
The recorded growth for entry CCN1CCN(c2ccc(NC(=O)Nc3ccc(-c4cc(C(=O)NC)c5ncccc5n4)cc3)cc2C(F)(F)F)CC1 equals -96.3

----------
System: CAKI-1 renal
procedure.text: NCI-60 one-dose screen, 48 h (100 = growth as untreated, 0 = no growth, -100 = all killed)
study.conditions: 10 µM
This is part of a sample that, as a whole, favours compounds with a hit. Of some 83,000 tested, about 20% had one in any assay.
Reported growth is given for each of the following compounds.
Give your result in % as a bare value.

Illustrative cases are given below, each with its answer.
> print(dat)
                                   compound  metric  units.text  result.value
1  O=C(Nc1cccc(C(F)(F)F)c1)c1cncc(C#Cc2cnc3cccnn23)c1  growth           %          71.8
2  COc1cccc(-c2ccnc(/N=C(\N)Nc3ccc(S(=O)(=O)Nc4nc(C)cc(C)n4)cc3)n2)c1  growth           %          80.4
3  CC1=N/C(=C\c2ccc(N(C)C)cc2)C(=O)N1CCc1ccc(S(N)(=O)=O)cc1  growth           %          88.3
4    O=C(CNc1nc(-c2ccccc2)cs1)Nc1ccc(Cl)cc1  growth           %         -82.4
5  Cc1cccc2cc(-c3cc(-c4ccccc4)nc(=S)[nH]3)c(Cl)nc12  growth           %          76.2
6  C=C1CCC2C3(C)COC(c4ccccc4F)OC3CCC2(C)C1C/C=C1/C(=O)OCC1O (centres undefined)  growth           %         -40.7
7  C#Cc1ccc(S(=O)(=O)Nc2cccc(-c3csc(NC(C)=O)n3)c2)cc1  growth           %          65.3
8  COc1ccc(-c2cc(-c3cc(C(=O)c4ccc(Br)cc4)n4ccc(C)cc34)nc(N)c2C#N)cc1  growth           %          68.1

Here is another compound to look at.
The recorded growth for entry C/C(=C\CSc1ccccc1C(=O)O)CCCC(C)CCCC(C)CCCC(C)C (centres undefined) equals 45.1

----------
Tested on: OVCAR-5 ovarian
procedure.text: NCI-60 one-dose screen, 48 h
study.conditions: 10 µM
This is part of a sample that, as a whole, favours compounds with a hit. Of some 83,000 tested, about 20% had one in any assay. The source made the active and inactive calls. The calls were made as follows: active = growth percent below 10; inactive = the rest.
Assign a class; possible classes are active, inactive

Answered cases to consult:
> print(dat)
                                   compound  qualitative.label
1  S=c1nc(-c2ccccc2)cc(-c2cc3ccccc3nc2Cl)[nH]1           inactive
2  O=C1Nc2ccc(Cl)cc2/C1=C/c1ccc(OCc2ccccn2)cc1           inactive
3  COc1ccc(/C=C/C(=O)c2ccc(S(=O)(=O)NCCNc3nc(Nc4ccc(F)cc4)nc(N(C)C)n3)cc2)cc1           inactive
4  COc1cccc2nc(Nc3ccc(F)c(NC(=O)c4ccc(CN5CCN(C)CC5)c(C(F)(F)F)c4)c3)ccc12           inactive
5  N#Cc1c(NC(=O)c2ccc(C(F)(F)F)c(Cl)c2)sc2c1CCC(=O)C2             active
6  COc1cc2c3c(n(CCCN4CCOCC4)c(=O)c2cc1OC)-c1nc2c(cc1C3=O)OCO2           inactive

Hi, sorry to bother you, what did the test record for Cc1cc(C)nc(NS(=O)(=O)c2ccc(N/C(N)=N/c3nccc(-c4ccccc4)n3)cc2)n1 ?
inactive

Hi, sorry to bother you, what did the test record for COc1ccc2[nH]c(O)c(N=NC(=O)COc3ccc(NC(=O)Nc4ccc(Cl)c(Cl)c4)cc3)c2c1 ?
active

Hi, sorry to bother you, what did the test record for CCCCSc1nc(Nc2ccc(/C(C)=N/NC(N)=S)cc2)c(C#N)c(-c2ccc(F)cc2)n1 ?
inactive

Hi, sorry to bother you, what did the test record for CCCCCc1ccc(S(=O)(=O)Nc2cc(-c3csc(N(C)C(C)=O)n3)ccc2N2CCN(C)CC2)cc1 ?
inactive

Hi, sorry to bother you, what did the test record for CCCCOc1ccc(Nc2nc3ccccc3nc2Nc2ccc(OCCCC)cc2)cc1 ?
inactive

Hi, sorry to bother you, what did the test record for O=C1CCC(N2Cc3cc(CC(=O)Nc4ccc(N5CCCCC5)cc4)ccc3C2=O)C(=O)N1 (centres undefined) ?
inactive
